Target: IDO1 (Homo sapiens (Human), UniProt P14902)
Sequence (P14902 whole entry): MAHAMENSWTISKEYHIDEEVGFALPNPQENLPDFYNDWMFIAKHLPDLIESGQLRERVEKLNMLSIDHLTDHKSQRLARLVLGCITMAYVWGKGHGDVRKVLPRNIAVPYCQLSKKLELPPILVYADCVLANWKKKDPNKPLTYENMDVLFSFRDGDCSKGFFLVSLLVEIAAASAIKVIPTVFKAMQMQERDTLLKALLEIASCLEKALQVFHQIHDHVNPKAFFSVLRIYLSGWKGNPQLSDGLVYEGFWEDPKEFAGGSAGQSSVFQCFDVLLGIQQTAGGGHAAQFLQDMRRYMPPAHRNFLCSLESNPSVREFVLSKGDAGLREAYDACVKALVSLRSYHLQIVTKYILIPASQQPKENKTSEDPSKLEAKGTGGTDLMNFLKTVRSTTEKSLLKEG
Assay: IDO1 Enzyme Assay
Settings: read-out: IDO1 Enzyme Assay, IC50; HIS-tagged recombinant IDO1, 40 nM
pIC50: −log10 of the molar value.
Entries annotated with measured pIC50
measured-parameter: pIC50

compound_smiles=O=C(O)CSc1nonc1/C(=N/O)Nc1ccc(F)c(Br)c1 numeric_readout=6.98
compound_smiles=CCOC(=O)NC(=O)NCCSc1nonc1C(=NO)Nc1ccc(F)c(Br)c1 numeric_readout=6.96
compound_smiles=O=c1c(NCCSc2nonc2/C(=N/O)Nc2ccc(F)c(Br)c2)c(NCC2CC2)c1=O numeric_readout=7.41
compound_smiles=CCOC(=O)CNP(=O)(CCCSc1nonc1/C(=N/O)Nc1ccc(F)c(Br)c1)NCC(=O)OCC numeric_readout=6.88
compound_smiles=CC(=O)NCCSc1nonc1/C(=N/O)Nc1ccc(F)c(C)c1 numeric_readout=6.95
compound_smiles=O=C1CC[C@@H](CSc2nonc2/C(=N/O)Nc2ccc(F)c(Br)c2)N1 numeric_readout=7.43
compound_smiles=CC(C)(Sc1nonc1/C(=N/O)Nc1ccc(F)c(Br)c1)C(=O)NC[C@@H](O)CO numeric_readout=7.08
compound_smiles=CN1C(=O)NC[C@@H]1CSc1nonc1/C(=N/O)Nc1ccc(F)c(Br)c1 numeric_readout=7.27
